tested on: TAB165; assay: qHTS profiling for inhibitors of Plasmodium falciparum proliferation (AID 504749); also: nearly all actives have a fitted effect of over 60% in size; details: P. falciparum in erythrocytes, SYBR Green DNA, 72 h; series mostly up to 12.8 µM
Records with an inconclusive call do not appear. Active and inactive are the calls of the source. Calls follow the shape of the dose curve; as a rule, active = well fitted inhibition curve with a large enough effect; inconclusive = small, poorly fitted or top-dose-only effect; inactive = flat fitted curve, though single readings scatter.
Answer with one of the outcomes given here: true = active, false = inactive

Below are worked cases with known answers.
# Compound, Measurement Target, Cat
measured = [
    ("Nc1nc(NC2CC2)c2ncn([C@H]3C=C[C@@H](CO)C3)c2n1", "TAB165", "false"),
    ("CNC1C(OC2C(O[C@@H]3C(O)C(O)[C@@H](N=C(N)N)C(O)C3N=C(N)N)OC(C)[C@@]2(O)CO)OC(CO)C(O)C1O (some centres undefined)", "TAB165", "false"),
    ("CCCC(=O)O[C@]1(C(=O)CO)CCC2[C@@H]3CCC4=CC(=O)CC[C@]4(C)C3C(O)C[C@]21C (some centres undefined)", "TAB165", "false"),
]

Field: next compound
Q. Hey, what did the test say about CC1(C)O[C@H]2C[C@@H]3[C@H]4CCC5=CC(=O)CC[C@@]5(C)[C@]4(F)[C@@H](O)C[C@@]3(C)[C@@]2(C(=O)CCl)O1 ?
A. true

====

target: Phospholipid hydroperoxide glutathione peroxidase GPX4 (Homo sapiens) (UniProt P36969); assay: Primary qHTS Assay for Inhibitors of Recombinant Selenoprotein Glutathione Peroxidase 4 (GPX4) (AID 1845192); details: recombinant GPX4, GR-coupled NADPH fluorescence, 15 min; series mostly up to 50 µM; also: nearly all actives have a fitted effect of over 65% in size
Sequence (P36969 whole entry, looked up): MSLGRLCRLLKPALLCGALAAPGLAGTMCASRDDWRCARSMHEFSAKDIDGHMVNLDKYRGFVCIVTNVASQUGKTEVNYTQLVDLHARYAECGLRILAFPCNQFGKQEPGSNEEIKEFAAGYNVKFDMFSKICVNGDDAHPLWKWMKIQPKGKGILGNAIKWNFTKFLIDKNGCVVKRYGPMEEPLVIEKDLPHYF
Results filed as inconclusive are left out. Activity calls are given as the source filed them. Calls come from the whole dose curve; as a rule, active = well fitted inhibition curve with a large enough effect; inconclusive = small, poorly fitted or top-dose-only effect; inactive = flat fitted curve, though single readings scatter. Where a SMILES comes first, the peptide text is derived from it. [ ]: non-standard residue; d: D form. Dip = N[C@H](C(=O)O)C(c1ccccc1)c1ccccc1
Answer with one of the outcomes given here: 1 (yes) (active), 0 (no) (inactive)

Below are worked cases with known answers.
# Compound, Measurement Target, Cat
measured = [
    ("Cc1ccc(C(=O)OCc2ccc([C@@H](CN)C(=O)Nc3ccc4cnccc4c3)cc2)c(C)c1", "Phospholipid hydroperoxide glutathione peroxidase GPX4 (Homo sapiens) (UniProt P36969)", "0 (no)"),
    ("Nc1ccc(F)cc1NC(=O)c1ccc(CNC(=O)/C=C/c2cccnc2)cc1", "Phospholipid hydroperoxide glutathione peroxidase GPX4 (Homo sapiens) (UniProt P36969)", "0 (no)"),
    ("Nc1cc(C(F)(F)F)c(-c2nc(N3CCOCC3)nc(N3CCOCC3)n2)cn1", "Phospholipid hydroperoxide glutathione peroxidase GPX4 (Homo sapiens) (UniProt P36969)", "0 (no)"),
]

Field: next compound
Q. Hey, what did the test say about NCCCC[C@H](NC(=O)[C@@H](NC(=O)[C@H](Cc1c[nH]c2ccccc12)NC(=O)[C@H](CCCCN)NC(=O)[C@H](CCCCN)NC(=O)[C@H](Cc1c[nH]c2ccccc12)NC(=O)[C@H](Cc1c[nH]c2ccccc12)NC(=O)[C@H](CCCCN)NC(=O)[C@@H](N)CCCCN)C(c1ccccc1)c1ccccc1)C(N)=O (H-KKWWKKW[Dip]K-NH2) ?
A. 0 (no)

====

system: CP297; experiment: qHTS profiling for inhibitors of Plasmodium falciparum proliferation (AID 504749); also: nearly all actives have a fitted effect of over 60% in size; settings: P. falciparum in erythrocytes, SYBR Green DNA, 72 h; series mostly up to 12.8 µM
Results filed as inconclusive are left out. Activity calls are given as the source filed them. The call rests on the fitted dose curve; in most records, active means well fitted inhibition curve with a large enough effect; inconclusive means small, poorly fitted or top-dose-only effect; inactive means flat fitted curve, though single readings scatter.
Observable: outcome

Sample records with outcome:
# Compound, Observable, Reading
measured = [
    ("C/C1=C2N=C(/C=C3N=C(/C(C)=C4\\[N-]C(C)(C5N=C1C(C)(CCC(=O)NCC(C)OP(=O)([O-])O[C@H]1C(O)C(n6cnc7cc(C)c(C)cc76)O[C@@H]1CO)C5CC(N)=O)C(C)(CC(N)=O)C4CCC(N)=O)C(C)(CC(N)=O)C\\3CCC(N)=O)C(C)(C)C/2CCC(N)=O.[CH2-]C1OC(n2cnc3c(N)ncnc32)C(O)C1O.[Co] (some centres undefined)", "outcome", "inactive"),
    ("Cn1nnnc1SCC1=C(C(=O)O)N2C(=O)[C@@H](NC(=O)[C@@H](O)c3ccccc3)[C@@H]2SC1", "outcome", "inactive"),
    ("NS(=O)(=O)c1cc2c(cc1Cl)N[C@@H](C(Cl)Cl)NS2(=O)=O", "outcome", "inactive"),
    ("CC=C(/C(=C/C)c1ccc(O)cc1)c1ccc(O)cc1", "outcome", "inactive"),
    ("CCC(C)C(=O)OC1CC(O)C=C2C=CC(C)C(CCC(O)CC(O)CC(=O)O)C21 (centres undefined)", "outcome", "inactive"),
]

Q. # lookup: outcome of CN(C)CCc1c[nH]c2ccc(CC3COC(=O)N3)cc12 (centres undefined)
A. inactive

Q. # lookup: outcome of CCC1OC(=O)C(C)[C@@H](O[C@H]2C[C@@](C)(OC)C(O)C(C)O2)C(C)[C@@H](O[C@@H]2OC(C)CC(N(C)C)C2O)[C@@](C)(O)CC(C)C(=O)[C@@H](C)C(O)[C@]1(C)O (some centres undefined)
A. inactive

Q. # lookup: outcome of O=C1O[C@H](CN2CCOCC2)CN1/N=C\c1ccc([N+](=O)[O-])o1
A. inactive

Q. # lookup: outcome of COc1ccc2cc(C(C)CO)ccc2c1 (centres undefined)
A. inactive

====

assay: qHTS Assay for Lipid Storage Modulators (AID 1519); settings: Drosophila S3 cells, BODIPY lipid droplet/cell ratio, laser cytometry; measured here: lipid channel max response; cells loaded with oleic acid
Records with an inconclusive call do not appear.
Observable: max response

# Compound, Observable, Reading
data = [
    ("NC(C(=O)NC1C(=O)N2C(C(=O)O)=C(Cl)CSC12)c1ccccc1 (centres undefined)", "max response", "24.9%"),
    ("CO[C@@H]1C=CO[C@]2(C)Oc3c(C)c(O)c4c(O)c(c(C=NN5CCN(C)CC5)c(O)c4c3C2=O)NC(=O)C(C)=CC=C[C@H](C)[C@H](O)[C@H](C)[C@H](O)[C@H](C)[C@H](OC(C)=O)[C@H]1C", "max response", "-4.23%"),
    ("CCOC(=O)C1=C(C)NC(C)=C(C(=O)OC)[C@@H]1c1cccc([N+](=O)[O-])c1", "max response", "-22.2%"),
    ("COc1ccc2c(c1)OC/C(=C\\c1ccc(OC)c(O)c1)C2=O", "max response", "-8.22%"),
]

Q. # lookup: max response of COc1ccc(-c2coc3c(OC)c(OC)cc(OC)c3c2=O)cc1
A. 29.7%

Q. # lookup: max response of CNC[C@H](O)c1ccc(OC(=O)C(C)(C)C)c(OC(=O)C(C)(C)C)c1
A. 16.1%

Q. # lookup: max response of OC1C2COC(O2)[C@H](O)C1O (some centres undefined)
A. 22.2%

Q. # lookup: max response of NCC1O[C@@H](OC2C(N)CC(N)C(O)C2O[C@@H]2OC(CO)C(O)C2O)C(N)C(O)C1O (some centres undefined)
A. 12.7%

Q. # lookup: max response of CC(=O)N(C[C@@H](C)C(=O)O)c1c(I)cc(I)c(N)c1I
A. 3.33%

====

test system: 7G8; test: qHTS profiling for inhibitors of Plasmodium falciparum proliferation (AID 504749); also: nearly all actives have a fitted effect of over 60% in size; conditions: P. falciparum in erythrocytes, SYBR Green DNA, 72 h; series mostly up to 12.8 µM
Inconclusive results are not listed. Calls of active or inactive are those of the source. The call rests on the fitted dose curve; in most records, active means well fitted inhibition curve with a large enough effect; inconclusive means small, poorly fitted or top-dose-only effect; inactive means flat fitted curve, though single readings scatter.
Answer with one of the outcomes given here: active, inactive

# Compound, Measurement Target, Cat
data = [
    ("COC1OC(CO)C(OC2OC(C(=O)O)C(OC3OC(COS(=O)(=O)O)C(OC4OC(C(=O)O)C(OC5OC(CO)C(OC6OC(C(=O)O)C(OC7OC(COS(=O)(=O)O)C(OC8OC(C(=O)O)=C[C@H](O)C8OS(=O)(=O)O)C(O)C7NC(C)=O)[C@@H](O)C6O)C(O)C5NC(C)=O)[C@@H](O)C4O)C(O)C3NC(C)=O)[C@@H](O)C2O)C(O)C1NC(C)=O (stereo not given in full)", "7G8", "active"),
    ("COC(=O)[C@@H]1[C@@H]2C[C@H]3c4[nH]c5cc(OC)ccc5c4CCN3C[C@@H]2C[C@H](OC(=O)/C=C\\c2cc(OC)c(OC)c(OC)c2)[C@H]1OC", "7G8", "active"),
    ("CC(C)C1CCC(C(=O)NC(Cc2ccccc2)C(=O)O)CC1 (stereo not given)", "7G8", "inactive"),
    ("O=C(N/N=C\\c1ccc([N+](=O)[O-])o1)c1ccc(O)cc1", "7G8", "active"),
    ("C/C1=C2N=C(/C=C3N=C(/C(C)=C4\\[N-]C(C)(C5N=C1C(C)(CCC(=O)NCC(C)OP(=O)([O-])O[C@H]1C(O)C(n6cnc7cc(C)c(C)cc76)O[C@@H]1CO)C5CC(N)=O)C(C)(CC(N)=O)C4CCC(N)=O)C(C)(CC(N)=O)C\\3CCC(N)=O)C(C)(C)C/2CCC(N)=O.[CH2-]C1OC(n2cnc3c(N)ncnc32)C(O)C1O.[Co] (stereo not given in full)", "7G8", "inactive"),
    ("Clc1ccc([C@H](Cn2ccnc2)OCc2c(Cl)cccc2Cl)c(Cl)c1", "7G8", "active"),
    ("CN1C(=O)C[C@H](c2ccccc2)C1=O", "7G8", "inactive"),
    ("COc1ccc2cc(C(C)CO)ccc2c1 (stereo not given)", "7G8", "inactive"),
    ("CCN[C@@H]1CN(CCCOC)S(=O)(=O)c2sc(S(N)(=O)=O)cc21", "7G8", "inactive"),
    ("CC[N+](CC)(CC)CC[C@](O)(c1ccccc1)C1CCCCC1", "7G8", "inactive"),
]

Q. Hey, what did the test say about C[C@]12C=CC(=O)C=C1CCC1C2C(O)C[C@]2(C)C1CC[C@]2(O)C(=O)CO (stereo not given in full) ?
A. inactive

Q. Hey, what did the test say about C[C@H](CCC(=O)O)[C@H]1CC[C@@H]2[C@@H]3[C@@H](O)C[C@H]4C[C@@H](O)CC[C@@]4(C)[C@H]3CC[C@@]21C ?
A. inactive

Q. Hey, what did the test say about C[C@]1(c2ccccc2)OC(C(=O)O)=CC1=O ?
A. inactive

Q. Hey, what did the test say about C=Cc1c(C)c2cc3nc(cc4[nH]c(cc5nc(cc1[nH]2)C(C)=C5CCC(=O)O)c(CCC(=O)OC)c4C)[C@@]1(C)C3=CC=C(C(=O)OC)[C@H]1C(=O)OC (tested in a mixture with another compound) ?
A. active

Q. Hey, what did the test say about CN1CCC[C@@H](CC2c3ccccc3Sc3ccccc32)C1 ?
A. active

Q. Hey, what did the test say about Cc1cccc(CN2CCN([C@@H](c3ccccc3)c3ccc(Cl)cc3)CC2)c1 ?
A. active

Q. Hey, what did the test say about C[C@]12CCC(=O)C=C1CCC1C2C(=O)C[C@]2(C)C1CC[C@]2(O)C(=O)CO (stereo not given in full) ?
A. inactive

Q. Hey, what did the test say about CNC1C(OC2C(O[C@@H]3C(O)C(O)[C@@H](N=C(N)N)C(O)C3N=C(N)N)OC(C)[C@@]2(O)CO)OC(CO)C(O)C1O (stereo not given in full) ?
A. inactive

Q. Hey, what did the test say about CC(C)=CCC[C@](C)(O)C1CC=C(C)CC1 (stereo not given in full) ?
A. inactive

Q. Hey, what did the test say about NS(=O)(=O)c1cc2c(cc1Cl)N[C@@H](CC1CCCC1)NS2(=O)=O ?
A. inactive

Q. Hey, what did the test say about CC(=O)OCC(=O)[C@@]1(O)[C@H](C)C[C@@H]2[C@H]3CCC4=CC(=O)C=C[C@]4(C)[C@]3(F)[C@@H](O)C[C@@]21C ?
A. inactive

Q. Hey, what did the test say about NC[C@@H]1O[C@@H](O[C@H]2[C@H](O)[C@H](O[C@@H]3O[C@H](CO)[C@@H](O)[C@H](N)[C@@H]3O)[C@@H](N)C[C@H]2N)[C@H](N)C[C@@H]1O ?
A. inactive

Q. Hey, what did the test say about CC1(C)S[C@@H]2[C@H](NC(=O)[C@@H](N)c3ccccc3)C(=O)N2[C@H]1C(=O)O[C@H]1OC(=O)c2ccccc21 ?
A. inactive

Q. Hey, what did the test say about COC1C=CO[C@@]2(C)Oc3c(C)c(O)c4c(O)c(c5c(nc6cc(C)ccn65)c4c3C2=O)NC(=O)/C(C)=C\C=CC(C)C(O)[C@@H](C)C(O)C(C)[C@@H](OC(C)=O)C1C (stereo not given in full) ?
A. active

Q. Hey, what did the test say about NS(=O)(=O)c1cc2c(cc1C(F)(F)F)N[C@H](Cc1ccccc1)NS2(=O)=O ?
A. inactive

Q. Hey, what did the test say about CN1CC(=O)N=C1N ?
A. inactive

Q. Hey, what did the test say about O=C(NC[C@@H](O)CO)c1c(I)c(C(=O)NC[C@@H](O)CO)c(I)c(N(CCO)C(=O)CO)c1I ?
A. inactive

Q. Hey, what did the test say about CNC1CC(N)[C@H](O)[C@@H](O[C@@H]2OC(CO)C3OC4(OC(C(N)CO)C(O)C(O)C4O)O[C@@H]3[C@H]2O)C1O (stereo not given in full) ?
A. inactive

Q. Hey, what did the test say about C[C@@H]1C[C@H]2[C@@H]3C[C@H](F)C4=CC(=O)C=C[C@@]4(C)[C@]3(F)[C@H](O)C[C@]2(C)[C@@]1(O)C(=O)CO ?
A. inactive

Q. Hey, what did the test say about COc1cc2nc(N3CCN(C(=O)[C@@H]4COc5ccccc5O4)CC3)nc(N)c2cc1OC ?
A. active
